target: B-Raf (Homo sapiens (Human)); assay: Raf kinase assay (B-Raf), [33P] incorporation into MEK1(K97R); type: biochemical
Sequence (P15056 whole entry): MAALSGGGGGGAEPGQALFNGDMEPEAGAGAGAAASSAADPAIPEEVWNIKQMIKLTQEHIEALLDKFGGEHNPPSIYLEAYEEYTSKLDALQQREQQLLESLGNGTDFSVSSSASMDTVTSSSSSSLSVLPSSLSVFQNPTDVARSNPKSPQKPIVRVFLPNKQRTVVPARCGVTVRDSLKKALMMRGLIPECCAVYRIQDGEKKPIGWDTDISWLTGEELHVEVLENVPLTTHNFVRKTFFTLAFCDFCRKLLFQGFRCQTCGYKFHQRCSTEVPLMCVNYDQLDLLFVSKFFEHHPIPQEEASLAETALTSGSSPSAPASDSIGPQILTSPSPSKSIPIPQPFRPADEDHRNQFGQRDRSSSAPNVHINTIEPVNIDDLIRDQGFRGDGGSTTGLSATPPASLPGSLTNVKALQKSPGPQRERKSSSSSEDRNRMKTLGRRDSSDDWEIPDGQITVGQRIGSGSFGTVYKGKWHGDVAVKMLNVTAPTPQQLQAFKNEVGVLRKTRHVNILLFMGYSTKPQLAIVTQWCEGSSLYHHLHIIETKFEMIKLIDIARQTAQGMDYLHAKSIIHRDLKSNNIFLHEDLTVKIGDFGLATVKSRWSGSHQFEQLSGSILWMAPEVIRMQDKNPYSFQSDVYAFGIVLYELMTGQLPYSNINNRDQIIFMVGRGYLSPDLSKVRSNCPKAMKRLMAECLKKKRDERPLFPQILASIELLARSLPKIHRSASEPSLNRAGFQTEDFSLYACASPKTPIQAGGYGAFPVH
Recorded measurements of IC50, one per entry
Note: unit nM is implicit; provide only the numeric part.

>>> readout_value("Oc1cccc(-c2ccc3nccc(Nc4cccc5[nH]ncc45)c3c2)c1")
230
>>> readout_value("COc1cc(-c2ccc3ncnc(Nc4ccc(Cl)cc4O)c3c2)ccc1O")
1120
>>> readout_value("COc1cc2ncnc(Nc3cccc(O)c3)c2cc1-c1ccc(N)cc1")
55.8
>>> readout_value("COc1ccc(-c2ccc3ncnc(Nc4cccc5[nH]ncc45)c3c2)c(C)c1")
698
>>> readout_value("COc1cc(-c2ccc3ncnc(Nc4cc(O)ccc4C)c3c2)ccc1O")
60
>>> readout_value("Fc1ccccc1-c1ccc2ncnc(Nc3cccc4[nH]ncc34)c2c1")
155
>>> readout_value("CS(=O)(=O)Nc1cccc(-c2ccc3ncnc(Nc4cccc5[nH]ncc45)c3c2)c1")
430
>>> readout_value("FC(F)(F)c1cccc(-c2ccc3ncnc(Nc4cccc5[nH]ncc45)c3c2)c1")
356

So the reported IC50 for "N#Cc1cccc(-c2ccc3ncnc(Nc4cccc5[nH]ncc45)c3c2)c1" , on B-Raf (Homo sapiens (Human)), turned out to be 134

So the reported IC50 for "COc1ccc(-c2ccc3ncnc(Nc4cccc5[nH]ncc45)c3c2)cc1Cl" , on B-Raf (Homo sapiens (Human)), turned out to be 216

So the reported IC50 for "COc1cc(-c2cc3c(Nc4ccc(C)c(O)c4)ncnc3cc2OC)ccc1O" , on B-Raf (Homo sapiens (Human)), turned out to be 266

So the reported IC50 for "COc1cc(-c2ccc3ncnc(Nc4cccc(NS(C)(=O)=O)c4)c3c2)ccc1O" , on B-Raf (Homo sapiens (Human)), turned out to be 463

So the reported IC50 for "COc1cc(-c2ccc3ncnc(Nc4cccc(O)c4C)c3c2)ccc1O" , on B-Raf (Homo sapiens (Human)), turned out to be 141

So the reported IC50 for "COc1cc(-c2ccc3ncnc(Nc4cccc(C(N)=O)c4)c3c2)ccc1O" , on B-Raf (Homo sapiens (Human)), turned out to be 317

So the reported IC50 for "Fc1ccc(-c2ccc3ncnc(Nc4cccc5[nH]ncc45)c3c2)cc1Cl" , on B-Raf (Homo sapiens (Human)), turned out to be 514

So the reported IC50 for "COc1cc(-c2ccc3ncnc(Nc4ccc(F)c(O)c4F)c3c2)ccc1O" , on B-Raf (Homo sapiens (Human)), turned out to be 2.9

So the reported IC50 for "COc1cc(-c2ccc3ncnc(Nc4cccc5[nH]nnc45)c3c2)ccc1O" , on B-Raf (Homo sapiens (Human)), turned out to be 668

So the reported IC50 for "COc1cc(-c2ccc3ncnc(Nc4cccc5c4cnn5C)c3c2)ccc1O" , on B-Raf (Homo sapiens (Human)), turned out to be 358
